Tested on: DU-4475
Experiment: normalised response (% of control), CellTox Green; higher = less cell death (100 = DMSO, 0 = benzethonium chloride kill control)
Conditions: incubation time: 72 h
Form field: normalised response (one value per entry).
Respond numerically; units are % and should not be typed.

Reference set, count: 5
molecule	readoutUnit	measuredResult
CCCCCCCCCCCCCCCCCCOP(=O)([O-])OC1CC[N+](C)(C)CC1 [Perifosine] (2500 nM)	%	95.7
CN(C)/N=N/c1[nH]cnc1C(N)=O [Dacarbazine] (10000 nM)	%	98.9
NC(=O)Nc1cc(-c2cccc(F)c2)sc1C(=O)N[C@H]1CCCNC1 [AZD7762] (1000 nM)	%	99.9
NC(=O)Nc1cc(-c2cccc(F)c2)sc1C(=O)N[C@H]1CCCNC1 [AZD7762] (10 nM)	%	99.5
CO[C@H]1/C=C\C=C(/C)C(=O)NC2=CC(=O)C(NCCN(C)C)=C(C[C@@H](C)C[C@H](OC)[C@H](O)[C@@H](C)/C=C(\C)[C@@H]1OC(N)=O)C2=O [Alvespimycin] (1000 nM)	%	79.2

Retrieve normalised response measured for CNCc1ccc(-c2[nH]c3cc(F)cc4c3c2CCNC4=O)cc1 [Rucaparib] (10000 nM) and print it. 97.5

Retrieve normalised response measured for O=C(CCCCCCC(=O)Nc1ccc([C@H]2O[C@@H](CSc3nc(-c4ccccc4)c(-c4ccccc4)o3)C[C@@H](c3ccc(CO)cc3)O2)cc1)NO [Tubacin] (100 nM) and print it. 100

Retrieve normalised response measured for CCC(C)(C)C(=O)O[C@H]1C[C@@H](C)C=C2C=C[C@H](C)[C@H](CC[C@@H]3C[C@@H](O)CC(=O)O3)[C@H]21 [Simvastatin] (100 nM) and print it. 105

Retrieve normalised response measured for Clc1ccc(Nc2nnc(Cc3ccncc3)c3ccccc23)cc1 [Vatalanib] (1000 nM) and print it. 101

Retrieve normalised response measured for Cc1ccc(C(=O)Nc2ccc(CN3CCN(C)CC3)c(C(F)(F)F)c2)cc1C#Cc1cnc2cccnn12 [Ponatinib] (10 nM) and print it. 101

Retrieve normalised response measured for C[C@@H](Oc1cc(-c2cnn(C3CCNCC3)c2)cnc1N)c1c(Cl)ccc(F)c1Cl [Crizotinib] (1000 nM) and print it. 107

Retrieve normalised response measured for Oc1nc(-c2ccc(C(F)(F)F)cc2)nc2c1CSCC2 [XAV-939] (10000 nM) and print it. 103

* * *

Form field: normalised response (one value per entry).
System: HCC1937
Test: normalised response (% of control), CellTiter-Glo; higher = more viable cells (100 = DMSO, 0 = benzethonium chloride kill control)
Settings: incubation time: 72 h
Respond numerically; units are % and should not be typed.

compound	normalised response, %
O=C(CCCCCCC(=O)Nc1ccc([C@H]2O[C@@H](CSc3nc(-c4ccccc4)c(-c4ccccc4)o3)C[C@@H](c3ccc(CO)cc3)O2)cc1)NO [Tubacin] (100 nM)	92.8
CN(N=O)C(=O)N[C@@H](C=O)[C@@H](O)[C@H](O)[C@H](O)CO [Streptozocin] (100 nM)	99.8
O=P1(NCCCl)OCCCN1CCCl (centres undefined) [Ifosfamide] (100 nM)	98.2

// next item, normalised response requested
Retrieve normalised response measured for CC(=O)Nc1ccc(C(=O)Nc2ccccc2N)cc1 [Tacedinaline] (10 nM) and print it. 94.8
